Origin of measurements: patent US20240327535A1

Molecular target: T1, human BCMA on NCI-H929, OPM2 and Raji cells (human, UniProt Q02223 1-184)
T1 construct: endogenous BCMA of human cell lines; also called TNFRSF17; CD269
T1 chain: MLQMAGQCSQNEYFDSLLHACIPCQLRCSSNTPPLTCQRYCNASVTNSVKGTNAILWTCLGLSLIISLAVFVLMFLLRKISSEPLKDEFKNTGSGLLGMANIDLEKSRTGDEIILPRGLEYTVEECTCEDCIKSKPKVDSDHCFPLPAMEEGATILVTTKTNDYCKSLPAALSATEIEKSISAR
Experiment: flow cytometry, Raji cells

{"columns": ["binder", "Kd, nM"],
 "data": [
  ["AB215 (antibody, human IgG1, kappa, V domains shown, IgG1 kappa) VH: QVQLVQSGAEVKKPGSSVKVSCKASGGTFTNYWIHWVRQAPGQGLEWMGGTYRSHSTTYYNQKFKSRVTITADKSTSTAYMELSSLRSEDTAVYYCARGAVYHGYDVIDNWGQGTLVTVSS VL: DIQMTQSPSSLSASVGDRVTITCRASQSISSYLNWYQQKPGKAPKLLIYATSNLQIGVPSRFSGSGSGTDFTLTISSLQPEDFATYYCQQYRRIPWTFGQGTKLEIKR", 11.2],
  ["AB212 (antibody, human IgG1, kappa, V domains shown, IgG1 kappa) VH: QVQLVQSGAEVKKPGSSVKVSCKASGGTFSNYWIHWVRQAPGQGLEWMGGTYRSHSDTNYNQKFKSRVTITADKSTSTAYMELSSLRSEDTAVYYCARGAIYHGYDVIENWGQGTLVTVSS VL: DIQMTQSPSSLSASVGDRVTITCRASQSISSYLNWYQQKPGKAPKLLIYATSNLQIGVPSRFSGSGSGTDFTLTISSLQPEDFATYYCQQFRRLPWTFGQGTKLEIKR", 16],
  ["AB214 (antibody, human IgG1, kappa, V domains shown, IgG1 kappa) VH: QVQLVQSGAEVKKPGSSVKVSCKASGGTFSNYWIHWVRQAPGQGLEWMGATYRSQSDTYYNQKYKSRVTITADKSTSTAYMELSSLRSEDTAVYYCARGAVYHGYDVIDNWGQGTLVTVSS VL: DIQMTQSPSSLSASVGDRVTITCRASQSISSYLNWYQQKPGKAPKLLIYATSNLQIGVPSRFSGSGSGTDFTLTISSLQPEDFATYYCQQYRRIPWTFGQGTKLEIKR", 5.66]
]}
